tested on: BDF1 mice, B16 melanoma ip, median survival T/C; test: NCI In Vivo Anticancer Drug Screen. Data for tumor model B16 Melanoma (intraperitoneal) in B6D2F1 (BDF1) mice; settings: endpoint: median survival time; dose: 50.0 mg/kg/injection; schedule: Q04DX003 (ip); vehicle: saline with Tween-80; higher = longer survival
Toxic doses and inconclusive results are not listed.
Measure name: T/C

Asked: Output measured T/C for this item: CC(C)C1CC2CCC3C(C)(C(=O)O)CCCC3(C)C2CC1CO (configuration not stated)
Given back: 100 % of control

Asked: Output measured T/C for this item: CC(=O)Nc1cc2c(cc1[N+](=O)[O-])-c1ccccc1C2O (configuration not stated)
Given back: 105 % of control

Asked: Output measured T/C for this item: COC(=O)C(C(=O)OC)C(Br)(OC(C)=O)OC(C)=O
Given back: 105 % of control

Asked: Output measured T/C for this item: C1=CC2C=CC12 (configuration not stated)
Given back: 91 % of control

Asked: Output measured T/C for this item: Oc1c(Cl)c(Cl)c(Cl)c(Cl)c1Cl (tested in a mixture with another compound)
Given back: 102 % of control

Asked: Output measured T/C for this item: C=CCCCCCCCCC(=O)N(CCOC)CCOC
Given back: 91 % of control

Asked: Output measured T/C for this item: CC(NC1=NCCO1)c1cccc2ccccc12 (configuration not stated)
Given back: 123 % of control

Asked: Output measured T/C for this item: Clc1ccc2nc(CI)c(CI)nc2c1
Given back: 100 % of control

Asked: Output measured T/C for this item: OC(CCCCl)CC(O)(C(F)(F)F)C(F)(F)F (configuration not stated)
Given back: 112 % of control

Asked: Output measured T/C for this item: NCCSC(C[N+](=O)[O-])c1ccc2c(c1)OCO2 (configuration not stated)
Given back: 102 % of control

Asked: Output measured T/C for this item: O=C(Nc1ccccc1)OCC(CN1CCCCC1)OC(=O)Nc1ccccc1 (configuration not stated)
Given back: 104 % of control

Asked: Output measured T/C for this item: COC(=O)Nc1nc2ccc(C(=O)c3cccs3)cc2[nH]1
Given back: 180 % of control

From: PubChem BioAssay AID192
